# experimental.target: HLA-B*07 (Homo sapiens)
# test.method.notes: MHC binding assay (UV-ligand exchange, ELISA of stabilized MHC complexes)
# assay.conditions: peptide exchange yield on HLA-B*07, UV-ligand exchange
# From the text: Candidate peptides for T cell based therapies according to the present invention were further tested for their MHC binding capacity (affinity). The individual peptide-MHC complexes were produced by UV-ligand exchange, where a UV-sensitive peptide is cleaved upon UV-irradiation and exchanged with the peptide of interest as analyzed. Only peptide candidates that can effectively bind and stabilize the peptide-receptive MHC molecules prevent dissociation of the MHC complexes. […]
measurement.label: Peptide exchange

Please review the entries below; each comes with its answer.
[
  {
    "substance": "349 (QPRDGWPMML; listed as Homo sapiens) [compound 349]",
    "value.reported": "++++ (>75% = ++++)"
  },
  {
    "substance": "240 (RVMLPKAAL; listed as Homo sapiens) [compound 240]",
    "value.reported": "+++ (>50 = +++)"
  },
  {
    "substance": "170 (APEGKRLGF; listed as Homo sapiens) [compound 170]",
    "value.reported": "++++ (>75% = ++++)"
  },
  {
    "substance": "190 (RLAHVRARL; listed as Homo sapiens) [compound 190]",
    "value.reported": "+++ (>50 = +++)"
  },
  {
    "substance": "41 (MPAGGGPRSL; listed as Homo sapiens) [compound 41]",
    "value.reported": "++++ (>75% = ++++)"
  },
  {
    "substance": "317 (MPYNSAHHCVV; listed as Homo sapiens) [compound 317]",
    "value.reported": "++++ (>75% = ++++)"
  },
  {
    "substance": "472 (LPMPAITWY; listed as Homo sapiens) [compound 472]",
    "value.reported": "++ (>20% = ++)"
  },
  {
    "substance": "330 (RPFSAIAEL; listed as Homo sapiens) [compound 330]",
    "value.reported": "++++ (>75% = ++++)"
  }
]

So what does the record say about Peptide exchange for 372 (SPSSASLTL; listed as Homo sapiens) [compound 372] ? ++++ (>75% = ++++)

So what does the record say about Peptide exchange for 268 (EPLSVTASY; listed as Homo sapiens) [compound 268] ? ++ (>20% = ++)

So what does the record say about Peptide exchange for 300 (HPYSDLADVF; listed as Homo sapiens) [compound 300] ? +++ (>50 = +++)

So what does the record say about Peptide exchange for 70 (VPAQRLGLL; listed as Homo sapiens) [compound 70] ? ++++ (>75% = ++++)

So what does the record say about Peptide exchange for 80 (SALPTTISF; listed as Homo sapiens) [compound 80] ? +++ (>50 = +++)

So what does the record say about Peptide exchange for 88 (KPSAVKDSIY; listed as Homo sapiens) [compound 88] ? ++ (>20% = ++)

So what does the record say about Peptide exchange for 12 (LPNTGRIGQLL; listed as Homo sapiens) [compound 12] ? ++++ (>75% = ++++)

So what does the record say about Peptide exchange for 473 (LPGEREAAL; listed as Homo sapiens) [compound 473] ? ++++ (>75% = ++++)

So what does the record say about Peptide exchange for 44 (SPSQTVQRAV; listed as Homo sapiens) [compound 44] ? ++++ (>75% = ++++)

So what does the record say about Peptide exchange for 335 (VPPQNPRPSL; listed as Homo sapiens) [compound 335] ? +++ (>50 = +++)

So what does the record say about Peptide exchange for 344 (VPYPSPTCV; listed as Homo sapiens) [compound 344] ? ++++ (>75% = ++++)
